- measurement-target: thymidylate synthase (Mus musculus, UniProt P07607)
- Construct: obtained in partially purified form from L1210 mouse leukaemia cells; endogenous in cells; host or cells: L1210 mouse leukaemia cells (enzyme partially purified)
- Sequence (P07607 whole entry): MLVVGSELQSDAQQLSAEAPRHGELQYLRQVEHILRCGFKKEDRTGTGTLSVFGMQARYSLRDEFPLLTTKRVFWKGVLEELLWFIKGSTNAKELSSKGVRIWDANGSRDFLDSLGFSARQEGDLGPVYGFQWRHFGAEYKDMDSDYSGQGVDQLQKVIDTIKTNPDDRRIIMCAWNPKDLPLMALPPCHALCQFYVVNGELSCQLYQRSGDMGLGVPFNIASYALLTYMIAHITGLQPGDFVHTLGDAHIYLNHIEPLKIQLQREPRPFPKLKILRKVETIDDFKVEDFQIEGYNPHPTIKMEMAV
- experimental-details: Test (a): in vitro inhibition of the enzyme thymidylate synthase (partially purified from L1210 mouse leukaemia cells)
- Format: biochemical
- assay-setup: enzyme from L1210 mouse leukaemia cells; read-out: IC50 against thymidylate synthase [Test (a)]
readout-kind: IC50

(Q) Quick check: IC50 of C#CCN(Cc1ccc2nc(C)nc(O)c2c1)c1ccc(C(=O)NCc2ccccn2)cc1 ?
(A) 500 nM

Attribution: patent US5395838A
